The reported numbers originate from PubChem BioAssay (EPA / NIEHS).

# Read-out: ABC Transporter (ABCC2), ABCC2 (gene 1244)
# experiment_summary: LTEA_HepaRG_ABCC2: Life Technologies and Expression Analysis (LTEA) Assay for ABC Transporter (ABCC2) using HepaRG (AID 2283464)
# protocol_conditions: mRNA level, 48 h; actives raise or lower the signal
Activity calls are given as the source filed them. How the source made its calls: active means hit-call score of the fitted dose curve at least 0.9, where 1 is the maximum; inactive means score below 0.9.
Outcomes: 1 for active, 0 for inactive

INSERT INTO assay_data (compound, group) VALUES
  ('CC(C)=CCCC(C)CCO (centres undefined)', 0),
  ('Oc1ccc2c(c1)-c1ccccc1C2', 0),
  ('O=C1CCC(N2C(=O)c3ccccc3C2=O)C(=O)N1 (centres undefined)', 0),
  ('CC[C@H]1OC(=O)[C@H](C)[C@@H](O[C@H]2C[C@@](C)(OC)[C@@H](O)[C@H](C)O2)[C@H](C)[C@@H](O[C@@H]2O[C@H](C)C[C@H](N(C)C)[C@H]2O)[C@](C)(O)C[C@@H](C)C(=O)[C@H](C)[C@@H](O)[C@]1(C)O', 0),
  ('CC(=O)OC[C@H]1O[C@@](COC(C)=O)(O[C@H]2O[C@H](COC(C)=O)[C@@H](OC(C)=O)[C@H](OC(C)=O)[C@H]2OC(C)=O)[C@@H](OC(C)=O)[C@@H]1OC(C)=O', 0),
  ('O=C1OC(=O)C2C3C=CC(C3)C12 (centres undefined)', 0),
  ('O=c1n(CC2CO2)c(=O)n(CC2CO2)c(=O)n1CC1CO1 (centres undefined)', 0),
  ('COCCOc1cc2cc(C(=O)NC3CCN(C(C)C)CC3)n(CC(=O)Nc3ccc(Cl)cn3)c2cn1', 1),
  ('CCOC(=O)c1ccc(C2CCC(NC[C@H](O)COc3ccc(O)c(NS(C)(=O)=O)c3)CC2)cc1 (some centres undefined)', 0),
  ('CCCCCCCCO', 0),
  ('Cc1ccc(N)cc1O', 0),
  ('O=C(O)c1cc(N=Nc2ccc(S(=O)(=O)Nc3ccccn3)cc2)ccc1O', 0),
  ('CCNc1ccccc1', 0),
  ('Cc1c(-c2cccnc2)c2ccccc2n1CCCCC(=O)O', 0),
  ('C[C@](N)(Cc1ccc(O)c(O)c1)C(=O)O', 0),
  ('Fc1ccccc1[C@@H](F)COC1CCC(Nc2ncnc3[nH]ncc23)CC1 (some centres undefined)', 1),
  ('C1=CCCC=CCCC=CCC1', 0),
  ('O=C(OC[C@H]1O[C@@H](OC(=O)c2cc(O)c(O)c(OC(=O)c3cc(O)c(O)c(O)c3)c2)[C@H](OC(=O)c2cc(O)c(O)c(OC(=O)c3cc(O)c(O)c(O)c3)c2)[C@@H](OC(=O)c2cc(O)c(O)c(OC(=O)c3cc(O)c(O)c(O)c3)c2)[C@@H]1OC(=O)c1cc(O)c(O)c(OC(=O)c2cc(O)c(O)c(O)c2)c1)c1cc(O)c(O)c(OC(=O)c2cc(O)c(O)c(O)c2)c1', 1),
  ('CC(C)=CCC/C(C)=C\CO', 0);

----------
# Read-out: E-selectin (Homo sapiens)
# experiment_summary: BSK_3C_Eselectin: BioMAP Diversity Plus: 3C Assay for Eselectin Biomarker Activity (AID 2283015)
# protocol_conditions: primary human endothelial cells (HUVEC); actives raise or lower the signal
Active and inactive are the calls of the source. The calls were made as follows: active = hit-call score of the fitted dose curve at least 0.9, where 1 is the maximum; inactive = score below 0.9.
Outcomes: Y for active, N for inactive

INSERT INTO assay_data (compound, group) VALUES
  ('Oc1ccc2c(c1)-c1ccccc1C2', 'N'),
  ('C=CCCCCCCCCC(=O)O', 'N'),
  ('CCCCCCCCCCCCCCCO', 'Y'),
  ('CC(O)CN(CCN(CC(C)O)CC(C)O)CC(C)O (configuration not stated)', 'N'),
  ('CCCCCCCCO', 'N'),
  ('O=C(NS(=O)(=O)/C=C/c1ccccc1)c1ccc(F)cc1Cl', 'N'),
  ('COc1ccc2sc(C(=O)Nc3nnn[nH]3)c(OC(C)C)c2c1', 'Y'),
  ('CCOCCO', 'N'),
  ('Cc1c(-c2cccnc2)c2ccccc2n1CCCCC(=O)O', 'N'),
  ('CC1=CC(=O)CC(C)(C)C1', 'N'),
  ('COc1ccc(-n2nc(C(F)F)cc2-c2ccc(S(C)=O)cc2)cc1 (configuration not stated)', 'N'),
  ('O=c1n(CC2CO2)c(=O)n(CC2CO2)c(=O)n1CC1CO1 (configuration not stated)', 'Y'),
  ('CNCc1ccc(NC(=O)c2c[nH]c3c2C(=O)CCC3)cc1', 'N'),
  ('O=C(CCCCCCCCc1cccnc1)N1CCC(C=C(c2ccccc2)c2ccccc2)CC1', 'Y'),
  ('COC(=O)CC(=O)OC', 'N'),
  ('CCCCCCc1ccc(O)cc1O', 'Y'),
  ('CN(C)c1ccc(Cc2ccc(N(C)C)cc2)cc1', 'N'),
  ('O=c1[nH]c2ccc(S(=O)CCN3CCC(Cc4ccc(F)cc4)CC3)cc2o1 (configuration not stated)', 'N'),
  ('CC(C)=CCC/C(C)=C\CO', 'N'),
  ('CCc1cc(SCc2sc(-c3ccc(C(F)(F)F)cc3)nc2CN2CCN(c3ccc(OC)cc3)CC2)ccc1OCC(=O)O', 'Y'),
  ('COC(=O)c1ccccc1O', 'N'),
  ('CC1(C)C(=O)N(Br)C(=O)N1Br', 'N'),
  ('CCn1nc(Cc2ccccc2)cc1C1CCN(C[C@H]2C[C@H](N(C)[C@@H](C(=O)O)C(C)C)C[C@@H]2c2cccc(F)c2)CC1', 'N'),
  ('CCN(C(=O)c1cc(C)cc(OC[C@H](C)Nc2ccncc2)c1)C(C)C', 'N'),
  ('O=C(O)c1cccc(Oc2ccccc2)c1', 'N'),
  ('CC(C)=CCC/C(C)=C/CO', 'N'),
  ('CCCCC(CC)COC(=O)CCCCCCCCC(=O)OCC(CC)CCCC (configuration not stated)', 'N');
